Molecular target: T1, cynomolgus IL-18BP (cynomolgus monkey)
T1 construct: also called cyno IL-18BP; cyIL-18BP
T1 chain: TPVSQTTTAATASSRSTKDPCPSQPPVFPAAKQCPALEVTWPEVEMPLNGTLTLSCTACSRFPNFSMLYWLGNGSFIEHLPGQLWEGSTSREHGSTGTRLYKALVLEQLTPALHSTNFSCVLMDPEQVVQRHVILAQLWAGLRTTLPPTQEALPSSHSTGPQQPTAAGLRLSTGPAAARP
Test: BLI, apparent KD
pKd: −log10 of the molar value.
Parameter: pKd

Binder	Observed measurement
SA301a HC-V100aL (antibody, name in Kabat numbering, V domains shown, IgG1 kappa) VH: QVQLQESGPGLVKPSQTLSLTCTVSGYSITSDYNSHWIRQPPGKGLEWIGYIHYSGSTNYNPSLKSRVTISRDTSKNQFSLKLSSVTAADTAVYYCARNYGSIYLNYFDYWGQGTLVTVSS VL: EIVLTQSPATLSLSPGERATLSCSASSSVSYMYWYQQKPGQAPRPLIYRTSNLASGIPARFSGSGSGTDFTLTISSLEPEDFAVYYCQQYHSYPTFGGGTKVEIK	9.09
SA301a HC-Y100I (antibody, V domains shown) VH: QVQLQESGPGLVKPSQTLSLTCTVSGYSITSDYNSHWIRQPPGKGLEWIGYIHYSGSTNYNPSLKSRVTISRDTSKNQFSLKLSSVTAADTAVYYCARNYGSIIVNYFDYWGQGTLVTVSS VL: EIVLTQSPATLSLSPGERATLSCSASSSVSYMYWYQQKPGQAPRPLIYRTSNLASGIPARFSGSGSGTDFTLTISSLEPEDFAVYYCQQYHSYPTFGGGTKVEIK	8.99
SA301a HC-Y100S (antibody, V domains shown) VH: QVQLQESGPGLVKPSQTLSLTCTVSGYSITSDYNSHWIRQPPGKGLEWIGYIHYSGSTNYNPSLKSRVTISRDTSKNQFSLKLSSVTAADTAVYYCARNYGSISVNYFDYWGQGTLVTVSS VL: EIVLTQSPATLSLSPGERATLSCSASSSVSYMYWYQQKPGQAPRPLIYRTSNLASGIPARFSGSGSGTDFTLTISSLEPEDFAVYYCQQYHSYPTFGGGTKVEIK	8.49
SA301a HC-Y100N (antibody, V domains shown) VH: QVQLQESGPGLVKPSQTLSLTCTVSGYSITSDYNSHWIRQPPGKGLEWIGYIHYSGSTNYNPSLKSRVTISRDTSKNQFSLKLSSVTAADTAVYYCARNYGSINVNYFDYWGQGTLVTVSS VL: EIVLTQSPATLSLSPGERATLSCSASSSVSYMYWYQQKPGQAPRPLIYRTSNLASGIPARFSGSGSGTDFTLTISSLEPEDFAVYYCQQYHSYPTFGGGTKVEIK	8.44
SA301a HC-V100aF (antibody, name in Kabat numbering, V domains shown, IgG1 kappa) VH: QVQLQESGPGLVKPSQTLSLTCTVSGYSITSDYNSHWIRQPPGKGLEWIGYIHYSGSTNYNPSLKSRVTISRDTSKNQFSLKLSSVTAADTAVYYCARNYGSIYFNYFDYWGQGTLVTVSS VL: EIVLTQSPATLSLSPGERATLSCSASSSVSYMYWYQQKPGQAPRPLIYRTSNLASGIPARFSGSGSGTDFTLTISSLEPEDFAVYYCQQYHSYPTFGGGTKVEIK	9.36

meta.source: patent US20250368745A1
